This collection of values is drawn from ChEMBL document CHEMBL4627334.

Would you mind telling me the reported IC50 of each entry?
tested on: A549; assay: Antiproliferative activity against human A549 cells assessed as reduction in cell viability after 72 hrs by MTT assay; assay type: functional, cell-based; details: A549, 72 h
Unit µM implied. Number only.

Query: Item under review: `Cc1cc(=O)n(-c2cccc(C(F)(F)F)c2)nc1C(=O)Nc1ccc(Oc2ccnc(C(=O)NCCCN3CCOCC3)c2)cc1` . Reported IC50?
Response: 2.5

Query: Same question for `CNC(=O)c1cc(Oc2ccc(NC(=O)c3nn(-c4cccc(C(F)(F)F)c4)c(=O)cc3C)cc2F)ccn1` please.
Response: 10.2

Query: Same question for `Cc1cc(=O)n(-c2ccccc2OC(F)(F)F)nc1C(=O)Nc1ccc(Oc2ccnc(C(=O)NCCc3cccs3)c2)cc1` please.
Response: 876

Query: Same question for `Cc1cc(=O)n(-c2cccc(C(F)(F)F)c2)nc1C(=O)Nc1ccc(Oc2ccnc(C(=O)NCCc3cccs3)c2)cc1` please.
Response: 722

Query: Same question for `CNC(=O)c1cc(Oc2ccc(NC(=O)c3nn(-c4ccccc4)c(=O)cc3C)cc2F)ccn1` please.
Response: 40.8

Query: Same question for `CCNC(=O)c1cc(Oc2ccc(NC(=O)c3nn(-c4cccc(C(F)(F)F)c4)c(=O)cc3C)cc2)ccn1` please.
Response: 10

Query: Same question for `CCCNC(=O)c1cc(Oc2ccc(NC(=O)c3nn(-c4ccc(C)cc4)c(=O)cc3C)cc2F)ccn1` please.
Response: 18

Query: Same question for `CCCNC(=O)c1cc(Oc2ccc(NC(=O)c3nn(-c4ccccc4OC(F)(F)F)c(=O)cc3C)cc2F)ccn1` please.
Response: 4.22

Query: Same question for `CCCNC(=O)c1cc(Oc2ccc(NC(=O)c3nn(-c4cccc(C(F)(F)F)c4)c(=O)cc3C)cc2F)ccn1` please.
Response: 9.24

Query: Same question for `CN1CCN(C2CCN(C(=O)Nc3cc(Oc4ccc(NC(=O)C5(C(=O)Nc6ccc(F)cc6)CC5)c(F)c4)ccn3)CC2)CC1` please.
Response: 6.89

Query: Same question for `Cc1cc(=O)n(-c2ccc(Br)cc2F)nc1C(=O)Nc1ccc(Oc2ccnc(C(=O)NCCc3cccs3)c2)cc1` please.
Response: 585

Query: Same question for `CCNC(=O)c1cc(Oc2ccc(NC(=O)c3nn(-c4ccccc4C)c(=O)cc3C)cc2)ccn1` please.
Response: 34.8

Query: Same question for `CCNC(=O)c1cc(Oc2ccc(NC(=O)c3nn(-c4cccc(F)c4)c(=O)cc3C)cc2)ccn1` please.
Response: 7.41

Query: Same question for `CCNC(=O)c1cc(Oc2ccc(NC(=O)c3nn(-c4ccccc4OC(F)(F)F)c(=O)cc3C)cc2)ccn1` please.
Response: 5.28

Query: Same question for `CNC(=O)c1cc(Oc2ccc(NC(=O)c3nn(-c4ccccc4Cl)c(=O)cc3C)cc2F)ccn1` please.
Response: 11.8

Query: Same question for `CCCNC(=O)c1cc(Oc2ccc(NC(=O)c3nn(-c4ccccc4C)c(=O)cc3C)cc2F)ccn1` please.
Response: 25.7

* * *

system: A549; experiment: Antiproliferative activity against human A549 cells assessed as reduction in cell viability after 72 hrs by MTT assay; type: functional, cell-based; conditions: A549, 72 h
metric: IC50 (µM)
Unit µM implied. Number only.

Query: Item under review: `Cc1cc(=O)n(-c2ccc(Br)cc2F)nc1C(=O)Nc1ccc(Oc2ccnc(C(=O)NCCCN3CCOCC3)c2)cc1` . Reported IC50?
Response: 6.83

Query: Same question for `Cc1ccc(-n2nc(C(=O)Nc3ccc(Oc4ccnc(C(=O)NCCCN5CCOCC5)c4)cc3)c(C)cc2=O)cc1` please.
Response: 2.94

Query: Same question for `CCCNC(=O)c1cc(Oc2ccc(NC(=O)c3nn(-c4cccc(F)c4)c(=O)cc3C)cc2F)ccn1` please.
Response: 7.02

Query: Same question for `Cc1cc(=O)n(-c2ccccc2OC(F)(F)F)nc1C(=O)Nc1ccc(Oc2ccnc(C(=O)NCCCN3CCOCC3)c2)cc1` please.
Response: 1.03
